Values were extracted from patent US20210024639A1.

Molecular target: T1, mouse MET-Fc chimeric protein (R&D Systems) (mouse, UniProt P16056 25-929, limits assumed)
T1 construct: bought (R&D Systems); also called mMET; not shown: Fc
T1 sequence (P16056 25-929 limits assumed, change not shown): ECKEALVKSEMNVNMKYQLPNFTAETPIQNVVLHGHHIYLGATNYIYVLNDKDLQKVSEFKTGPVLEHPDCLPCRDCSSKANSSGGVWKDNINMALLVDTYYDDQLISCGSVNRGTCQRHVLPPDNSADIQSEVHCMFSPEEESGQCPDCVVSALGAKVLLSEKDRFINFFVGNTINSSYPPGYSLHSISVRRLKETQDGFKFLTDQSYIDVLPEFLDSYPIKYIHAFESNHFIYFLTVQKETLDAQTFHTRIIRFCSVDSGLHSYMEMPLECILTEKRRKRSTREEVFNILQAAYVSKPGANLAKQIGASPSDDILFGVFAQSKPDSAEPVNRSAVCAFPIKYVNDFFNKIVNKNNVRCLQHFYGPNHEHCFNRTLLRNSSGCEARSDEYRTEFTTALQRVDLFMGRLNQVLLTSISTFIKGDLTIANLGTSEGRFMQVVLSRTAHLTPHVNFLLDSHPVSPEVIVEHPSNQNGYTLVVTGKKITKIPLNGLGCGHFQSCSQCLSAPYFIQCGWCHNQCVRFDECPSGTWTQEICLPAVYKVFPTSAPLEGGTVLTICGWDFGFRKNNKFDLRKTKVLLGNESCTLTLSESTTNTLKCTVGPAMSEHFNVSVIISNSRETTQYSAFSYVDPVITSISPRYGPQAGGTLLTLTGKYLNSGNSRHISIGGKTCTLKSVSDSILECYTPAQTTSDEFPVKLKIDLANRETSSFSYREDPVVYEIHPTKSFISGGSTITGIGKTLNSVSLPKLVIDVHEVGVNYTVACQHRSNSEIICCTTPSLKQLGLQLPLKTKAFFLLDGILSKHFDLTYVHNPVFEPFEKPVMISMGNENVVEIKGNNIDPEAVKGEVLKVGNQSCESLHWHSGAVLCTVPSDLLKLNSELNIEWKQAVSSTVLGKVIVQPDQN
Assay: competition ELISA, mMET-Fc in solid phase, competitor 0.3 nM biotinylated mHGF
Reported IMAX (maximum % competition) by item:
Provide the reading as a plain figure in %.

// query IMAX (maximum % competition) value for entry chimeric llama-human IgG1 mAb 71G2 (antibody, V domains shown) VH: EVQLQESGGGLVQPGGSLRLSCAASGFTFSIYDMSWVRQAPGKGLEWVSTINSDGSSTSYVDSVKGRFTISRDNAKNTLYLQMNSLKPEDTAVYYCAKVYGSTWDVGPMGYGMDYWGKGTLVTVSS VL: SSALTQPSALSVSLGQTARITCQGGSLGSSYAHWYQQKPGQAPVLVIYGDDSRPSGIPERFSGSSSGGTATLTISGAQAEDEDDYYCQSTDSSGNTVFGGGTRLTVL 91.9

// query IMAX (maximum % competition) value for entry chimeric llama-human IgG1 mAb 71A3 (antibody, V domains shown) VH: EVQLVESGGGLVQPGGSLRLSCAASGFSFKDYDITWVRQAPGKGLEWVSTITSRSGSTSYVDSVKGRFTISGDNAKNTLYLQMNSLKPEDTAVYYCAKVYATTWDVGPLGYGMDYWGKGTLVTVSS VL: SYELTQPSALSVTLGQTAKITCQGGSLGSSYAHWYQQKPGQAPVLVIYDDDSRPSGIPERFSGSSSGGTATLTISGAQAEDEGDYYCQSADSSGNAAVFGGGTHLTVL 87.7

// query IMAX (maximum % competition) value for entry chimeric llama-human IgG1 mAb 72F8 (antibody, V domains shown) VH: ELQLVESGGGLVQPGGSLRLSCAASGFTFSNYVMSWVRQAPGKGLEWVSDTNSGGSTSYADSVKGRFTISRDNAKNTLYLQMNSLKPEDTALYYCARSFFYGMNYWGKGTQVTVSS VL: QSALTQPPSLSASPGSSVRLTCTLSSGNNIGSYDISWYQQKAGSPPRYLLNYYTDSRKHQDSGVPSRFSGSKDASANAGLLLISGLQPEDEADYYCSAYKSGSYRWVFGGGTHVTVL 72.8

// query IMAX (maximum % competition) value for entry chimeric llama-human IgG1 mAb 71G12 (antibody, V domains shown) VH: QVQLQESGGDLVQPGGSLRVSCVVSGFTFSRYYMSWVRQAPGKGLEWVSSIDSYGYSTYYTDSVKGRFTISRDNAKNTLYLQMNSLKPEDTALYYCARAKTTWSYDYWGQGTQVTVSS VL: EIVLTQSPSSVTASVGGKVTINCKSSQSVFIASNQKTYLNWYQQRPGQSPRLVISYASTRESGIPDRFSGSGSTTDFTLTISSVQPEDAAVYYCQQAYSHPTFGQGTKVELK 50.7

// query IMAX (maximum % competition) value for entry chimeric llama-human IgG1 mAb 76G7 (antibody, V domains shown) VH: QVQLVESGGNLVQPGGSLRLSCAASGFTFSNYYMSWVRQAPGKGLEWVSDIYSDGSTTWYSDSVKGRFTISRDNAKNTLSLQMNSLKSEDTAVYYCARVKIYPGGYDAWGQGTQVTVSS VL: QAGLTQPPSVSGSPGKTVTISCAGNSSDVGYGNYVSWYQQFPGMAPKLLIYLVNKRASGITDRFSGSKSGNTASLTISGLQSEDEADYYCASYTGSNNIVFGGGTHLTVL 62.5
